test system: Escherichia coli NIHJ; test: MIC against Escherichia coli NIHJ; type: cell-based
Structures can show the parent of a compound that is named as a salt.
ATTRIBUTE MEASURED: MIC (µg/mL)

Below: 3 molecules and their reported MIC.
O=C(C[n+]1cc([O-])on1)NC1C(=O)N2C(C(=O)O)=C(CSc3ccc(Cl)n[n+]3[O-])CSC12 (centres unmarked) [Example 12, sodium salt]
1.56
Cc1ccc(SCC2=C(C(=O)O)N3C(=O)C(NC(=O)C[n+]4cc([O-])on4)C3SC2)n[n+]1[O-] (centres unmarked)
1.56
O=C(O)C1=C(CSc2ccc(Cl)n[n+]2[O-])CSC2C(NC(=O)[C@H](O)c3ccccc3)C(=O)N12 (single isomer, unassigned) [Example 7, sodium salt]
1.56

(P) COc1ccc(SCC2=C(C(=O)O)N3C(=O)C(NC(=O)[C@H](O)c4ccccc4)C3SC2)[n+]([O-])n1 (single isomer, unassigned) [Example 6, sodium salt]
(Q) Cc1ccc(SCC2=C(C(=O)O)N3C(=O)C(NC(=O)[C@H](O)c4ccccc4)C3SC2)n[n+]1[O-] (single isomer, unassigned) [Example 1, sodium salt]
Qu. Please tell me which of the two, P or Q , has the higher reported MIC value. Record your answer as the label of the chosen record.
Ans. P
(P: 1.56 µg/mL, Q: 0.5 µg/mL)

The origin of these recorded values is patent US4008227A.
